biological target: 3-hydroxy-3-methylglutaryl-coenzyme A reductase (Rattus norvegicus); assay: In vitro rat HMG-CoA reductase inhibitory activity required to inhibit sterol synthesis in cell free system with pravastatin as reference compound
Each entry below carries its recorded Relative potency.

Mol | Relative potency
CC(C)c1nc2c3c(nn2c(-c2ccc(F)cc2)c1/C=C/[C@@H](O)C[C@@H](O)CC(=O)O)CCCC3 | 30
CC(C)c1nc2c(cnn2-c2ccccc2)c(-c2ccc(F)cc2)c1/C=C/[C@@H](O)C[C@@H](O)CC(=O)O | 228
CCc1c(C)sc2nc(C(C)C)c(/C=C/[C@@H](O)C[C@@H](O)CC(=O)O)c(-c3ccc(F)cc3)c12 | 35
O=C(O)C[C@H](O)C[C@H](O)/C=C/c1c(C2CC2)nc2sc3c(c2c1-c1ccc(F)cc1)CCC3 | 63
CC(C)c1nc2c(c(-c3ccc(Cl)cc3)nn2C)c(-c2ccc(F)cc2)c1/C=C/[C@@H](O)C[C@@H](O)CC(=O)O | 93
CC(C)c1nc2c(c(C3CC3)nn2C)c(-c2ccc(F)cc2)c1/C=C/[C@@H](O)C[C@@H](O)CC(=O)O | 42
CC(C)c1nc2sc3c(c2c(-c2ccc(F)cc2)c1/C=C/[C@@H](O)C[C@@H](O)CC(=O)O)CCCC3 | 48
Cc1c2c(-c3ccc(F)cc3)c(/C=C/[C@@H](O)C[C@@H](O)CC(=O)O)c(C(C)C)nc2nn1-c1ccccc1 | 162

Where these numbers come from: ChEMBL document CHEMBL1134061
